System: A549/ATCC NSCLC
Assay: NCI-60 one-dose screen, 48 h
Settings: 10 µM unless noted
Procedure: Growth inhibition of the A549/ATCC human Non-Small Cell Lung tumor cell line is measured as a screen for anti-cancer activity. Cells are grown in 96 well plates and exposed to the test compound for 48 hours. Compounds are tested at a single concentration, which is 10^-5 M for most compounds. The reported endpoint is percent growth (GI% or GIPRCNT), where numbers from 0 - 100% represent growth inhibition, and numbers from -100% - 0 represent cell death. […]
About 83,000 compounds went through this panel and 20% of them were active in at least one assay; those are over-represented in the sample as a whole. The source made the active and inactive calls. Rule for the calls: active = growth percent below 10; inactive = the rest.
Use one of these outcomes when replying: active, inactive

Exercise: Name the outcome recorded for CCOC(=O)n1cc(-c2nonc2-c2cn(C)c3ccc(OC)cc23)c2cc(F)ccc21 in the assay.
Key: inactive

Exercise: Name the outcome recorded for Cc1ccc(/C=C2\COc3ccc(O)c(O)c3C2=O)cc1 in the assay.
Key: inactive

Exercise: Name the outcome recorded for COc1ccc(-c2nc(Cl)c3c(C)nn(-c4ccc(F)cc4)c3n2)cc1 in the assay.
Key: inactive

Exercise: Name the outcome recorded for [2H]C([2H])([2H])Oc1cccc(/C=C/C(=O)/C=C(/C=C/c2cccc(OC([2H])([2H])[2H])c2OC([2H])([2H])[2H])OB(F)F)c1OC([2H])([2H])[2H] in the assay.
Key: inactive

Exercise: Name the outcome recorded for Cc1ccc(-c2nc3nc(-c4ccccc4)nc(N4CCCNCC4)c3o2)cc1 in the assay.
Key: active

Exercise: Name the outcome recorded for CCN1CCN(C(=O)[C@]23CC[C@@H](C)[C@H](C)[C@@H]2C2=CC[C@@H]4[C@@]5(C)CCC(=O)C(C)(C)[C@@H]5CC[C@@]4(C)[C@]2(C)CC3)CC1 in the assay.
Key: inactive

Exercise: Name the outcome recorded for O=C1C(=C(O)c2ccccc2)C(=O)c2ccccc21 in the assay.
Key: inactive

Exercise: Name the outcome recorded for CNC(=O)c1cc(Oc2ccc3nc(NC(=O)Nc4ccc(C(F)(F)F)cc4)sc3c2)ccn1 in the assay.
Key: active
